Each recorded value in this set is attributed to PubChem BioAssay (NCI).

tested on: MCF7 breast; test: NCI-60 one-dose screen, 48 h; settings: 10 µM
Compounds without any hit were thinned out: in the full panel of roughly 83,000, 20% have a hit. Activity calls are given as the source filed them. How the source made its calls: active means growth percent below 10; inactive means the rest.
Classes used: active, inactive

- CCCCCCC(O)(c1ccc(F)cc1)C(CN1CCOCC1)c1ccccc1 (centres undefined): inactive
- COc1cc2nc(-c3cnc(N(C)C)nc3)nc(NC3CCN(Cc4ccccc4)CC3)c2cc1OC: active
- O=S1(=O)CCN(Cc2ccccc2)CC1: inactive
- O=C(COc1cc(O)c2c(=O)cc(-c3ccccc3)oc2c1)Nc1ccccc1: inactive
- Nc1ccc(-c2nc3cc(Oc4ccc(Oc5ccc6[nH]c(-c7ccc(N)cc7)nc6c5)cc4)ccc3[nH]2)cc1: inactive
- CCOC(=O)c1c2c(n3cccc(Cl)c13)C(=O)c1ncccc1C2=O: inactive
- O=c1c2cc(F)ccc2sc2c(NCCN3CCCC3)nc3ccccc3c12: inactive
- Cc1ccc(Nc2nc(N)c3ccccc3n2)cc1Cl: inactive
- N#C/C(=C\c1c(-c2ccccc2)[nH]c2ccccc12)S(=O)(=O)c1ccccc1: inactive
- COc1ccc(Br)c(/C=C2\SC(=Nc3ccc(O)cc3)NC2=O)c1: inactive
- Cc1c(C(=O)OCCO)cc(-c2ccc(Cl)cc2)n1-c1ccc(Cl)cc1Cl: inactive
- O=C(Nc1ccccc1O)c1ccc(-c2ccc(Cl)cc2Cl)o1: inactive
- O=C(NCc1ccccc1)C1CN(c2ccc(Cl)cc2)N(c2ccc(Cl)cc2)C1=O (centres undefined): inactive
- COc1cc(C#N)cc2[nH]c(=O)oc12: inactive
- CCOC(=O)c1ccc2[nH]c(-c3ccccc3)cc(=O)c2c1: inactive
- COc1ccc(C)c2sc(N(Cc3cccnc3)C(=O)c3ccc(C#N)cc3)nc12: active
- CCOC(=O)c1sc(-c2ccc(OS(=O)(=O)c3ccc(Br)s3)c(C=O)c2)nc1C: active
- CC(=Nc1ccccc1)C1=C(O)C(Cc2ccc(F)cc2)NC1=O (centres undefined): inactive
- O=C1Nc2ccccc2/C1=C/c1ccc[nH]1: inactive

----------
system: MDA-MB-231 breast; assay: NCI-60 one-dose screen, 48 h (100 = growth as untreated, 0 = no growth, -100 = all killed); details: 10 µM unless noted
Compounds without any hit were thinned out: in the full panel of roughly 83,000, 20% have a hit.
endpoint label: growth (%)

* CC(C)(C)c1ccc(C2CC(=O)C3=C(C2)Nc2ccccc2N(C(=O)c2ccccc2Cl)C3c2ccc(F)cc2)cc1 (stereo not drawn) | 15.7
* Cc1cc(Nc2ccc(OCc3ccccc3)cc2)nc2cc(O)ccc12 | 37.7
* Cc1cc(Br)c(N)c(Br)c1 | 103

----------
system: HCC-2998 colon; experiment: NCI-60 one-dose screen, 48 h (100 = growth as untreated, 0 = no growth, -100 = all killed); details: 10 µM unless noted
About 83,000 compounds went through this panel and 20% of them were active in at least one assay; those are over-represented in the sample as a whole.
Below, each entry is listed with its recorded growth.
endpoint label: growth (%)

* O=C(Nc1ccc(I)cc1F)c1cc(Cl)ccc1O | 17.6
* O=C(Nc1ccccc1O)c1ccc(-c2ccc(Cl)cc2Cl)o1 | 96.5
* CCN1C(=O)N(CC)C2C1NC(=S)N2/N=C/C=C/c1ccccc1OC (stereo not drawn) | 12.4
* COCCN(C(=O)Cc1cccs1)C(C(=O)NCc1ccc(OC)cc1)c1ccc(C(C)C)cc1 (stereo not drawn) | 81.4
* COc1ccc(-c2nnc(COc3ccc(C(=O)/C=C/c4ccco4)cc3)o2)cc1 | 98.2
* CCOC(=O)c1cc2c(n1Cc1cccc(OC)c1)-c1oncc1CCC2 | 51.6
* c1ccc2cc3c(Nc4ccc(N5CCOCC5)cc4)ccnc3cc2c1 | 109
* Clc1ccc(Nc2nnc(-c3ccc4c(c3)OCO4)o2)cc1 | 98.6
